TEST SYSTEM: human HSD17B13 (Homo sapiens, UniProt Q7Z5P4)
Sequence (Q7Z5P4 20-300): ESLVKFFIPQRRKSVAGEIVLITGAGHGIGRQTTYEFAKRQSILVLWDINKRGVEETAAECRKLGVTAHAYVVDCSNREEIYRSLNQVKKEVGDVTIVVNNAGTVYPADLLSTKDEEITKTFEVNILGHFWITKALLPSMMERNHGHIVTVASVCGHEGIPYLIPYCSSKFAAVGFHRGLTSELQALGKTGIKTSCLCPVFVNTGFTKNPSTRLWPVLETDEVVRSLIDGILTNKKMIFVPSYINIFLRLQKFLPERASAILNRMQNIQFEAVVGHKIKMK
MEASUREMENT DESCRIPTION: Substrate screening of steroid and bioactive lipid libraries against purified recombinant HSD17B13 (NADH-linked luciferase assay)
Format: biochemical
ASSAY CONTEXT: Bioactive Lipid Library, 5 μM bioactive lipid, normalized to 50 μM estradiol after subtraction of 5% DMSO
READOUT: HSD17B13 Enzymatic Activity Percent Estradiol Control (%)
Answers are plain numbers, in %.

[
  {
    "COMPOUND": "CCCCCC(O)C=CC1OC(=O)CC(O)C1CC=CCCCC(=O)O (stereo not shown) [11-dehydro Thromboxane B2]",
    "UNIT LABEL": "%",
    "OBSERVED": 5.22
  }
]

Hi! Can you tell me HSD17B13 Enzymatic Activity Percent Estradiol Control for each of these compounds?
1. CCCCC[C@H](O)/C=C/[C@H]1C=CC(=O)[C@@H]1CCCCCCC(=O)NCCCCCNC(=O)CCCC[C@@H]1SC[C@@H]2NC(=O)N[C@@H]21
2. CCCCCCCC[C@@H](O)C=CC=CC=C[C@@H](O)CCCC(=O)O [12-epi Leukotriene B3]
3. CC/C=C\C/C=C\C/C=C\C/C=C\C/C=C\CC1OC1CCC(=O)OC (racemic) [(±)4(5)-EpDPA methyl ester]
4. O=C(O)CCCCC(=O)CC[C@@H]1[C@@H](CCC(=O)O)[C@@H](O)C[C@H]1O
5. CCCCC/C=C\C/C=C\C=C\C(O)C/C=C\CCCC(=O)O (racemic) [(±)8-HETE]
6. CCCCC/C=C\C/C=C\C/C=C\CC1OC1CCCC(=O)O (racemic) [(±)5(6)-EET]

Given back:
2.07
15.71
1.00
6.68
22.75
5.51

Source of measurements: patent US11479802B2
